Reported pIC50 values for a set of compounds
# Target: NaV1.5 (Homo sapiens)
# Construct: permanently transfected with an expression vector containing the full-length cDNA coding for the desired human sodium channel α-subunit; expressed in transfected cells; host or cells: HEK-293
# Run Description: Patch voltage clamp electrophysiology assay (EP), NaV1.5
# Format: cell-based
In textbook form, pIC50 equals minus log to base ten of the concentration in mol/L.

Examples with their reported pIC50 follow.
O=C(O)[C@@H]1CC2(CC2)CN1C(=O)c1cc(C2CC2)c(OCC23CC4CC(CC(C4)C2)C3)cc1F: 4.92
O=C(O)[C@@H]1CC2(CC2)CN1C(=O)c1cc(C2CC2)c(OCC2(F)CCN(Cc3cc(C(F)(F)F)ccc3Cl)CC2)cc1F: 4.80

Then this compound:
// fetch pIC50 given entry O=C(O)[C@@H]1CC2(CC2)CN1C(=O)c1cc(C2CC2)c(OCC2(F)CCN(Cc3ccc(C(F)(F)F)cc3Cl)CC2)cc1F
4.92

====

# Target: NaV1.5 (Homo sapiens, UniProt Q14524)
# Construct: permanently transfected with an expression vector containing the full-length cDNA coding for the desired human sodium channel α-subunit; expressed in transfected cells; host or cells: HEK-293
# Sequence (Q14524 whole entry): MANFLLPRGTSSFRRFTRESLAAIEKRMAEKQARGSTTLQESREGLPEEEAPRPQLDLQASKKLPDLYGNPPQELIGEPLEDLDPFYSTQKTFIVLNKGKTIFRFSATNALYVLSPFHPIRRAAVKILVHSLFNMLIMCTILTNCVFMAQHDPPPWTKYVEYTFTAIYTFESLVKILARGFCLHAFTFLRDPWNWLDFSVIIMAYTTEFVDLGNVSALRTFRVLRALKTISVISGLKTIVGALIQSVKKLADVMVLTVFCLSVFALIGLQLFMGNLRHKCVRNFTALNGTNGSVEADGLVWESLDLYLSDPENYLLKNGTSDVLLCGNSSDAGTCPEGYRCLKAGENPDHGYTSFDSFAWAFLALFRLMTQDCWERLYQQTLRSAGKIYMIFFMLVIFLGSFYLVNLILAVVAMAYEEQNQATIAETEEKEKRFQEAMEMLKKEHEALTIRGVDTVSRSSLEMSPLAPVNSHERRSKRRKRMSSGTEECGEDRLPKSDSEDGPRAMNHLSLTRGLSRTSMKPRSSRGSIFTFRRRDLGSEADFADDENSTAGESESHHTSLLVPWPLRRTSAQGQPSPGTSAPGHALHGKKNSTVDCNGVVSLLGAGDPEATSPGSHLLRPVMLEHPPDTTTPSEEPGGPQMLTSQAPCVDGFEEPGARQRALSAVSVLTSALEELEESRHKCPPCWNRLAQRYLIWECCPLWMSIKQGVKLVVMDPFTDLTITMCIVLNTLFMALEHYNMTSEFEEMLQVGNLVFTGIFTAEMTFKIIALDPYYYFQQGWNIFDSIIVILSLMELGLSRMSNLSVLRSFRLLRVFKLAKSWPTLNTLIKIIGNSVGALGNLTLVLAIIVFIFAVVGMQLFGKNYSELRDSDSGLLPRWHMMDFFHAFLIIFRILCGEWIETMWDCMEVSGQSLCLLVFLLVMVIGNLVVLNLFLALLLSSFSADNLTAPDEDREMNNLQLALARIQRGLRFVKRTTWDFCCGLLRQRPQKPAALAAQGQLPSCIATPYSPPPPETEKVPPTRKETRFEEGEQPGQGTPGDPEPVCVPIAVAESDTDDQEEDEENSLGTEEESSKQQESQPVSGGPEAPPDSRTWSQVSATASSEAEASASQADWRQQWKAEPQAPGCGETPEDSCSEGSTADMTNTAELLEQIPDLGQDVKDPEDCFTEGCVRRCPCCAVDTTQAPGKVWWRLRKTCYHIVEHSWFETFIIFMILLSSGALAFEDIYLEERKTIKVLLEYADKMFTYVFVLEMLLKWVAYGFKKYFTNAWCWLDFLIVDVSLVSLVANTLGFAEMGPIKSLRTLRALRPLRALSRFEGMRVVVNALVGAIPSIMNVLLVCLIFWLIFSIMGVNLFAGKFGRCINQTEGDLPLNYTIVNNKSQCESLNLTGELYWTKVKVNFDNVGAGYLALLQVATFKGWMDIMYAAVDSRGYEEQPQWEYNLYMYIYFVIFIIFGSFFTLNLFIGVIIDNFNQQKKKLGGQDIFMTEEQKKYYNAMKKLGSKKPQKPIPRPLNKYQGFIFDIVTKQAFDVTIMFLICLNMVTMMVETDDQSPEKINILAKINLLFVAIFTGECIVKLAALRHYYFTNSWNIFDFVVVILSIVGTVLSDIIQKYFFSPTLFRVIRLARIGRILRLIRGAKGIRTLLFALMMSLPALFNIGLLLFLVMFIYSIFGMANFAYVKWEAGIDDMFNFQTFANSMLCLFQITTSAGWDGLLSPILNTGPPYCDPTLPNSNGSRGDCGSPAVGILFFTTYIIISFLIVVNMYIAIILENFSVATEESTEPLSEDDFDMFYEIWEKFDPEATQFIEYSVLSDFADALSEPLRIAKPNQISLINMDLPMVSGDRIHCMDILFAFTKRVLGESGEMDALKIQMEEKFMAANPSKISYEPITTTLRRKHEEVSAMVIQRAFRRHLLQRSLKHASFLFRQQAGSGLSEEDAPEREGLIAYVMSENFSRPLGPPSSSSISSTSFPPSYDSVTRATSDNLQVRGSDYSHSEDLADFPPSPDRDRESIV
# Run Description: Patch voltage clamp electrophysiology assay (EP), NaV1.5
# Type: cell-based
# Applied Conditions: HEK-293 cells stably expressing NaV1.5 with β1 subunit; whole-cell patch clamp, membrane potential −60 mV (inactivated state); read-out: Nav1.5
# Procedure: The following patch voltage clamp electrophysiology studies were performed on representative compounds of the invention using human embryonic kidney cells (HEK), permanently transfected with an expression vector containing the full-length cDNA coding for the desired human sodium channel α-subunit, grown in culture media containing 10% FBS, 1% PSG, and 0.5 mg/mL G418 at 37° C. with 5% CO2. […]
Measure: IC50

// fetch IC50 given entry O=C(O)[C@@H]1[C@H]2C[C@H]2CN1C(=O)c1cc(C2CC2)c(OCC23CC4CC(CC(C4)C2)C3)cc1F (stereo in doubt) [Example 171]
9 µM

// fetch IC50 given entry O=C(O)[C@@H]1[C@@H](O)CCN1C(=O)c1cc(C2CC2)c(OCC23CC4CC(CC(C4)C2)C3)cc1F [Example 75]
25 µM

====

# Target: human NaV1.7 (Homo sapiens)
# Construct: permanently transfected with an expression vector containing the full-length cDNA coding for the desired human sodium channel α-subunit; expressed in transfected cells; host or cells: HEK-293
# Sequence (Q15858 1-1977 isoform Q15858-3): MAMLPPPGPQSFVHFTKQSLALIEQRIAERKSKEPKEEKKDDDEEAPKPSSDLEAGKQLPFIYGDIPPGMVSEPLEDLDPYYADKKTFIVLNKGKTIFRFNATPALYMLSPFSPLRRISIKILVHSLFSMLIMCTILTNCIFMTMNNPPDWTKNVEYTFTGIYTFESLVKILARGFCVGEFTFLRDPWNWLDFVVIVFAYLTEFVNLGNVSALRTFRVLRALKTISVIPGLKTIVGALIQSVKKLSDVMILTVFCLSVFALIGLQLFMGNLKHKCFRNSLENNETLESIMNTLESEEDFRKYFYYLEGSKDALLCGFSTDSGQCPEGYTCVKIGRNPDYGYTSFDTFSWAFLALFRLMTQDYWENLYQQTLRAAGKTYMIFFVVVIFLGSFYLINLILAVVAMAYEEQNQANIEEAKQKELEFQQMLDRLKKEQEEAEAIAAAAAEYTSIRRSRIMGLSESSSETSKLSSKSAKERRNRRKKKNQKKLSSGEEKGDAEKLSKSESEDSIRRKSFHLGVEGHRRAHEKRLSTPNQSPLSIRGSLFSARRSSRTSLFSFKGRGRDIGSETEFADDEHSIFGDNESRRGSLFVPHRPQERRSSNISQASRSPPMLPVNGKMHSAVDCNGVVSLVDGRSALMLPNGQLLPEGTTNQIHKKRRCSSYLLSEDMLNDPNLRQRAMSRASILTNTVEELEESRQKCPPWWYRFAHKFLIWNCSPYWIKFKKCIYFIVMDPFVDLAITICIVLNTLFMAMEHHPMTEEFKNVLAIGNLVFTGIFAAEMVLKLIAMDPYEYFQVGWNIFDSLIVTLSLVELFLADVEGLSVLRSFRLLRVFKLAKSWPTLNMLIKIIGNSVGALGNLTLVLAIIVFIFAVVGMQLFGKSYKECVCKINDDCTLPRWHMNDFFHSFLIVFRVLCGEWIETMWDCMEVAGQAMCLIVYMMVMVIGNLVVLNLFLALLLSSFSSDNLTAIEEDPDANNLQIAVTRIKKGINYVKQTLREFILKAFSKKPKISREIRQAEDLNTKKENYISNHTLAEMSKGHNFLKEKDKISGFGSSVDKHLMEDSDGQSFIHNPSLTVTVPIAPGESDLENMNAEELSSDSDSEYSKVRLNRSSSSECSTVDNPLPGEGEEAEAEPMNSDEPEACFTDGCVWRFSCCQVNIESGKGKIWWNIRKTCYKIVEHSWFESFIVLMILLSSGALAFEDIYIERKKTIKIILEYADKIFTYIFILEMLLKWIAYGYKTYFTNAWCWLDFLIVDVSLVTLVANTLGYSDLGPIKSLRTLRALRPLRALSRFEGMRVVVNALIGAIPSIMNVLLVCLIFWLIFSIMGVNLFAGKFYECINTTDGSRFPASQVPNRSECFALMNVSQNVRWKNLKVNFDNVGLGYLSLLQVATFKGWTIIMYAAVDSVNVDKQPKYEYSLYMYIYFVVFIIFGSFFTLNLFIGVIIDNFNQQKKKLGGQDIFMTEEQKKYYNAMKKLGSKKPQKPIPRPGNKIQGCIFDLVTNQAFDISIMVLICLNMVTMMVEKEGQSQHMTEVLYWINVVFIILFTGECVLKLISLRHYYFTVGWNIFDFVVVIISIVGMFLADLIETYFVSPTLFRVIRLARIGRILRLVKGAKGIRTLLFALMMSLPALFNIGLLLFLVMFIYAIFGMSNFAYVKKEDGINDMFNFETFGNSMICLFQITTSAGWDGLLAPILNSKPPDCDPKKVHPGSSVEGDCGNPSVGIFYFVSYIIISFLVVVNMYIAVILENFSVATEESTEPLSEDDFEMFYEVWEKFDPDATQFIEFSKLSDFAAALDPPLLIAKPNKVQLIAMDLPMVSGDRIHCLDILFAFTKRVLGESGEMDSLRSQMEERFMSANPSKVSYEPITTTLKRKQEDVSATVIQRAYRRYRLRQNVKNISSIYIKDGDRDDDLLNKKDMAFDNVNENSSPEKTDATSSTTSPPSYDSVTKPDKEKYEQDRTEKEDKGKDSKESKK
# Sequence (Q07699 19-218 partner): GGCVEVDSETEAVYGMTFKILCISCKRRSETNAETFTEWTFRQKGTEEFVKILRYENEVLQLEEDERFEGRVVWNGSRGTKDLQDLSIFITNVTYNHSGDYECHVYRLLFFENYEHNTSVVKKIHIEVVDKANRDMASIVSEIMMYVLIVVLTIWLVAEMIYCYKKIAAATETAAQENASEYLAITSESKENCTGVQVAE
# Run Description: Patch voltage clamp electrophysiology assay (EP), NaV1.7
# Type: cell-based
# Applied Conditions: HEK-293 cells stably expressing NaV1.7 with β1 subunit; whole-cell patch clamp, membrane potential −60 mV (inactivated state)
# Protocol: The following patch voltage clamp electrophysiology studies were performed on representative compounds of the invention using human embryonic kidney cells (HEK), permanently transfected with an expression vector containing the full-length cDNA coding for the desired human sodium channel α-subunit, grown in culture media containing 10% FBS, 1% PSG, and 0.5 mg/mL G418 at 37° C. with 5% CO2. […]
Measure: IC50 (nM)
Form entry: value (nM) — number only.

CC1O[C@H](C)[C@@H](C(=O)O)N1C(=O)c1cc(C2CC2)c(OCC23CC4CC(CC(C4)C2)C3)cc1F (stereo partly drawn): 750
O=C(N[C@H](C(=O)O)C1CC1)c1cc(C2CC2)c(OCC2CCN([C@H](c3ccccc3)c3cc(Cl)cc(Cl)c3)CC2)cc1F (single isomer, unassigned): 760

// fetch IC50 given entry O=C(O)[C@@H]1CC2(CC2)CN1C(=O)c1cc(C2CC2)c(OCC23CC4CC(CC(C4)C2)C3)cc1F
790

// fetch IC50 given entry O=C(O)[C@@H]1C[C@@H](F)CN1C(=O)c1c(F)cc(OCC23CC4CC(CC(C4)C2)C3)cc1C1CC1
7800

// fetch IC50 given entry O=C(O)[C@@H]1[C@H]2C[C@H]2CN1C(=O)c1cc(C2CC2)c(OCC23CC4CC(CC(C4)C2)C3)cc1F (stereo in doubt)
240

// fetch IC50 given entry O=C(O)[C@@H]1[C@@H](F)CCN1C(=O)c1cc(C2CC2)c(OCC23CC4CC(CC(C4)C2)C3)cc1F
790
